# assayed-target: hSSB1 (Homo sapiens, UniProt Q9BQ15 Q9BQ15:1-211)
# Sequence (Q9BQ15 whole entry, one chain of several): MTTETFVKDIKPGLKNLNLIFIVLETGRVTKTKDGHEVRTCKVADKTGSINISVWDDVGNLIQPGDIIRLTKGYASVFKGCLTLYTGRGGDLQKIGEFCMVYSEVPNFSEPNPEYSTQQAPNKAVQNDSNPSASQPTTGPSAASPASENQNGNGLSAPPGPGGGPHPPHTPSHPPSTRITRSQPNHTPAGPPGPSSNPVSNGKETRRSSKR
# assay-remarks: SPR
experimental-endpoint: binding signal (normalized Rmax)
Numbers only, in normalized Rmax.

| binder | binding signal (normalized Rmax) |
| --- | --- |
| CGGACUUGCCU (ssRNA, 2'-OMe all, full PS) [In3E3 5' truncation 11 nt] | 0.09 |
| GCGGUGAACCGGAGUUGGCU (ssRNA, 2'-OMe all, full PS) [DKLS438994 (SEQ 66)] | 1.03 |

Now let's try a different one.
Notebook: ACAUGGUUCCCCGACAGUGUUA (ssRNA, 2'-OMe all, full PS) [DKLS687118 (SEQ 35)] , binding signal read as 1.7
